Overview of reported gcPBM binding intensity (ln) across a group of sequences:
# Tested on: PfAP2-I AP2 domain 3 (GST-tagged)
# ASSAY_PROCEDURE: gcPBM binding intensity (ln(normalized median fluorescence intensity)); higher = stronger DNA binding
Over roughly 25,000 sequences, “ln(normalized median fluorescence intensity)” has its median near 7.9; the highest 2% begin near 11. The full list was thinned out, with the highest values kept by preference.
Form field (numeric): enter value without unit.

- SEQ_TEXT: "TTTTGATATAAATATTAGATTAATAAATAAAAAAAT [CACACA_negctrl_site1635]"
  gcPBM binding intensity (ln): 7.8
- SEQ_TEXT: "TATATATATATATATGTGCACATATTTATATGTTTT"
  gcPBM binding intensity (ln): 9.85
- SEQ_TEXT: "GTATTTCTTTAATATACACACACCAAAACAAAAAAA [CACACA_site579]"
  gcPBM binding intensity (ln): 8.13
- SEQ_TEXT: "ATGTCAAATTTTTGTGCACACATATATAGTTATTAT [CACACA_site2242]"
  gcPBM binding intensity (ln): 10.8
- SEQ_TEXT: "TTATTTTATTTTTTTGTGCACATATATATTTATAAA [GTGCAC_site9615]"
  gcPBM binding intensity (ln): 10.9

Record TAAAATATGTCATGGGTGCTTCTTTTTATACCTATG [GTGCAC_site9888] , field gcPBM binding intensity (ln): 8.49

Record "GGGATATTTTAAAGGGTGCATATTATTAAAATAATG" , field gcPBM binding intensity (ln): 10.7

Record TTTCTGTGTTTTGGTTGTACACACGCTACATTATAT [XGTACX_site5669] , field gcPBM binding intensity (ln): 8.53

Record TGTTTTATTTTTTTTGTGCACATACCTTTAGCATCA [GTGCAC_site9812] , field gcPBM binding intensity (ln): 10.6

The reported numbers originate from the supplement of paper PMC11417369.
